Values were extracted from ChEMBL document CHEMBL2176980.

# Tested on: MCF7
# assay-comment: Down regulation of ERalpha human MCF7 cells at 10 uM by Western blotting
# Type: functional, cell-based
Calls of active or inactive are those of the source. The rule behind the calls is not given here.
Write down one outcome, taken from active, inactive

Example cases with answers are listed next.
# line-notation, target-desc, group
rows = [
    ("CCCn1c(-c2ccc(O)cc2F)cc(-c2ccc(O)cc2F)c1-c1ccc(O)cc1F", "MCF7", "active"),
    ("CCCn1c(-c2ccc(O)cc2F)cc(-c2ccc(O)cc2)c1-c1ccc(O)cc1", "MCF7", "active"),
    ("CCCn1c(-c2ccc(O)cc2)cc(-c2ccc(O)cc2)c1-c1ccc(O)cc1Cl", "MCF7", "active"),
    ("Cn1c(-c2ccc(O)cc2)cc(-c2ccc(O)cc2)c1-c1ccc(O)cc1Cl", "MCF7", "active"),
    ("Cn1c(-c2ccc(O)cc2F)cc(-c2ccc(O)cc2)c1-c1ccc(O)cc1F", "MCF7", "active"),
]

What did the test return for `Cn1c(-c2ccc(O)cc2Cl)cc(-c2ccc(O)cc2)c1-c1ccc(O)cc1` ?
inactive

Try this molecule next: `CCCn1c(-c2ccc(O)cc2F)cc(-c2ccc(O)cc2)c1-c1ccc(O)cc1F`
active

Try this molecule next: `CCCn1c(-c2ccc(O)cc2Cl)cc(-c2ccc(O)cc2)c1-c1ccc(O)cc1`
active

Try this molecule next: `CCCc1c(-c2ccc(O)cc2)nn(-c2ccc(O)cc2)c1-c1ccc(O)cc1`
active

Try this molecule next: `CCCn1c(-c2ccc(O)cc2)cc(-c2ccc(O)cc2F)c1-c1ccc(O)cc1`
active
